target: Death-associated protein kinase 3 (Homo sapiens); conditions: at 1 µM
measured-property: residual activity (%)

smi=CN(C)c1ccc(/C=C2\C(=O)Nc3ccccc32)cc1 value_observed=108
smi=C[C@@H](N)[C@H]1CC[C@H](C(=O)Nc2ccncc2)CC1 value_observed=101
smi=COc1cccc(-c2cc(=O)c3ccccc3o2)c1N value_observed=105
smi=N#C/C(=C(\N)Sc1ccc(N)cc1)c1ccccc1C(F)(F)F value_observed=89
smi=COc1cc2ncnc(Nc3ccc(Oc4ccccc4)cc3)c2cc1OC value_observed=103
smi=N#Cc1cnc2cnc(NCc3cccnc3)cc2c1Nc1ccc(F)c(Cl)c1 value_observed=65
smi=O=C1NC(=O)/C(=C/c2ccc3c(c2)OC(F)(F)O3)S1 value_observed=102
